Values were extracted from PubChem BioAssay (NCI).

Let's look at some compounds and their measured TGI.
System: SF-295 CNS
TEST_SUMMARY: NCI tumour cell line growth inhibition, 48 h

// TGI lookup, compound = Cc1cc(-c2c(Br)cc(C(=O)O)n2C)on1 , result: > 100 µM

TGI in this record for ClC1=C(Cl)C(Cl)=C(Cl)C1=Cc1ccccc1 : 3.74 µM

// CCc1c(C)[nH]c2c1/C(=N/N=C1\CCCc3[nH]c(C)c(CC)c31)CCC2 : TGI value = 46.6 µM

Reported TGI ( O=C1Nc2ccccc2C1(c1c[nH]c2ccccc12)c1c[nH]c2ccccc12 ) = 4.7 µM

TGI in this record for O=Cc1c(Cn2ccnc2)c2cc([N+](=O)[O-])ccc2n1Cc1ccccc1 : > 92.3 µM

Noted for SCCCSCCSCCCSCCS : its TGI reads > 100 µM

Entry O=C(O)CCC(NC(=O)c1ccc(Nc2nc3ccc(C(F)(F)F)cc3nc2-c2ccccc2)cc1)C(=O)O (configuration not stated) — recorded TGI = > 100 µM

The recorded TGI for CCOC(=O)C1(c2ccccc2)CCCNCC1 (configuration not stated) is > 100 µM

# TGI of CCNC(=S)NNC(=O)c1csc(NC(=S)NC2CCCCC2)n1 = 40.7 µM

Please fill in: TGI reported for CSc1nc(=Nc2ccccc2)sn1-c1ccccc1 = 49.2 µM

# TGI of CC1(C)CC(=O)c2c(nc3c(ccc4ccccc43)c2-c2ccc(NC(=O)CCCC(=O)Nc3ccc(-c4c5c(nc6c4ccc4ccccc46)CC(C)(C)CC5=O)cc3)cc2)C1 = > 100 µM

Measured TGI, O=C(O)c1sccc1O : > 100 µM

The compound listed as O=S(=O)(c1ccccc1)C1CN2OC1(S(=O)(=O)c1ccccc1)CC21CCCCC1 (configuration not stated) has a reported TGI of > 100 µM

Query O=c1[nH]nc(Cc2ccccc2)n1O yields TGI of > 100 µM

Reported TGI ( N#C/C(=C\c1c(Cl)cccc1Cl)c1ccccc1 ) = 65.5 µM

According to the records, this compound CCCCCCCCCCCC[C@H](O)[C@H]1CC[C@H]([C@H](O)CCCC[C@H](O)CCCCC[C@@H](O)CC2=C[C@H](C)OC2=O)O1 displays TGI of 20.1 µM

TGI recorded for this compound, COC(=O)C(CCC1CC(OC)N(C(=O)OCc2ccccc2)C1)N=Cc1ccccc1 (configuration not stated) , is > 100 µM

Looking up CC1(C(=O)O)CCC(C(=O)O)C(C)(C)O1 (configuration not stated) , I found its TGI recorded as > 100 µM

* * *

Test system: K-562 leukemia
TEST_SUMMARY: NCI tumour cell line growth inhibition, 48 h
READOUT_LABEL: TGI

A selection of reference data follows.
COc1ccc2c3c1O[C@H]1C(=O)C=CC4(n5[nH]c(=O)n(-c6ccccc6)c5=O)C(C2)N(C)CCC314 (stereo not given in full); > 100 µM
FC(F)(F)c1cccc2ns[s+]c12; > 100 µM
CC(=O)/C=C\C1CC2C=CC1C2 (stereo not given); > 100 µM
CCn1ncc(Oc2c(Cl)cc(N)cc2Cl)c(Cl)c1=O; > 100 µM
COc1ccc(-c2c(C#N)c(N)nc3c2COc2ccc(F)cc2-3)cc1OC; > 100 µM
Cc1cc(-c2c(Br)cc(C(=O)O)n2C)on1; > 100 µM
c1ccc(CSc2nnc3c4c5c(sc4nc(-c4cccnc4)n23)CCCCCC5)cc1; 10.4 µM
COc1cc(C(C)c2ccc3c(ccn3C)c2)cc(OC)c1OC (stereo not given); > 100 µM

So for COc1ccc(OC)c(NC(=O)c2c(Cl)c(Cl)c(Cl)c(Cl)c2-c2nc3ccccc3[nH]2)c1 , the logged TGI turned out to be > 100 µM

Kindly note the recorded TGI for C=CCN1C2Cc3cc(OC)c(OC)cc3C1Cc1cc(OC)c(OC)cc12 , which is > 100 µM

GET /value?item= O=c1oc2ccc(Cl)cc2cc1C1=CSC2=NCCN12 &field=TGI returns 36.8 µM

* * *

System: HOP-62 NSCLC
TEST_SUMMARY: NCI tumour cell line growth inhibition, 48 h
Below is a list of entries, each paired with its recorded TGI value.

The cases that follow already have their TGI on record.
COC(=O)C(CCC1CC(OC)N(C(=O)OCc2ccccc2)C1)N=Cc1ccccc1 (stereo not given); > 100 µM
O=[N+]([O-])c1ccc2scc3c4ccccc4nc-3c2c1; 3.24 µM
CC(=O)/C=C\C1CC2C=CC1C2 (stereo not given); > 100 µM
COc1ccc2[nH]c(C(O)(Cc3cccnc3)Cc3cccnc3)cc2c1; > 100 µM

Entry under test: CCC1([N+](=O)[O-])CC2C=CC1C2 (stereo not given) . Its TGI was > 100 µM

* * *

System: MCF7 breast
TEST_SUMMARY: NCI tumour cell line growth inhibition, 48 h; in the data active means GI50 below about 0.43 µM; inactive means the rest
Answer with one of the outcomes given here: yes (1) for active, no (0) for inactive

Recorded results for 2 compounds are shown here.
O=[N+]([O-])c1ccc2scc3c4ccccc4nc-3c2c1; no (0)
COc1cc(-c2nn(-c3ccc(NC(=O)NCCCNC(=O)c4ccccc4)cc3)cc2-c2ccncc2)ccc1Cl; yes (1)

Hi, do you know how CCCCCCCCCCCC[C@H](O)[C@H]1CC[C@H]([C@H](O)CCCC[C@H](O)CCCCC[C@@H](O)CC2=C[C@H](C)OC2=O)O1 came out in this test? no (0)

* * *

System: SNB-19 CNS
TEST_SUMMARY: NCI tumour cell line growth inhibition, 48 h
# TGI values compiled below

Consider the following illustrative entries.
Cc1cc(Nc2ncc(F)c(N[C@H]3[C@@H](C(N)=O)[C@@H]4C=C[C@H]3C4)n2)ccc1N1CCN(C)CC1; 8.75 µM
Cn1c(=O)c2c(ncn2Cc2ccc(O)c([N+](=O)[O-])c2)n(C)c1=O; > 100 µM
O=C(O)CCC(NC(=O)c1ccc(Nc2nc3ccc(C(F)(F)F)cc3nc2-c2ccccc2)cc1)C(=O)O (centres undefined); > 100 µM

// below: TGI requested for another compound
// O=C(NC1C2CC3CC(C2)CC1C3)c1ccncn1 (centres undefined) : TGI value = > 100 µM

* * *

Test system: SN12C renal
TEST_SUMMARY: NCI tumour cell line growth inhibition, 48 h
# maps each entry to its GI50

A selection of reference data follows.
CC(=O)OC1Oc2ccc(C)cc2-c2oc(=O)c(-c3cc4ccccc4oc3=O)cc21 (configuration not stated); 2.77 µM
COc1cc2c(cc1OC)[Se]c1cc(OC)c(OC)cc1[Se]2; > 100 µM
N.N.NCCCCCCN.O=C([O-])CCl.O=C([O-])CCl.O=C([O-])CCl.O=C([O-])CCl.[Pt+4].[Pt+4]; 3.74 µM
Cc1cccc(NC2=C(Cl)C(=O)N(Cc3ccc(Cl)cc3)C2=O)c1; 4.37 µM
Oc1c(Cl)cc(Cl)c2ccc(Cn3cc(-c4cc(F)cc(F)c4)nn3)nc12; 4.21 µM

Reported GI50 of COc1cc(NC(=O)c2ccc(C(F)(F)F)nc2Nc2ccc(Cl)cc2C)cc(OC)c1OC : 6.75 µM

Lab note: CC/C=C\C/C=C\C[C@H]1C/C=C2/C(=O)C=C[C@@H]2C/C=C\CCC(=O)O1 gave GI50 of 1.12 µM

* * *

Tested on: NCI-H460 lung
TEST_SUMMARY: NCI tumour cell line growth inhibition, 48 h
Listed below: TGI values for each entry.
The figure you give is taken to be in µM; do not add the unit.

CCNC(=S)NNC(=O)c1csc(NC(=S)NC2CCCCC2)n1; 35.2

Measured TGI, CCCCCCCCCCCC[C@H](O)[C@H]1CC[C@H]([C@H](O)CCCC[C@H](O)CCCCC[C@@H](O)CC2=C[C@H](C)OC2=O)O1 : 22.9

In plain terms, COC(=O)c1c2c(c3[nH]c4ccccc4c3c1C(=O)OC)C(=O)C1=C(C2=O)C2(Cl)C(Cl)C(Cl)C1(Cl)C2(Cl)Cl (stereo unspecified) has a documented TGI of 13.8

Input CN(CCNC(=O)c1nn(-c2ccccc2)c2c1ccc1ccccc12)CCNC(=O)c1nn(-c2ccccc2)c2c1ccc1ccccc12 . Output TGI: 2.99

Measured TGI of COc1cc2c(cc1OC)C(Cc1ccc(Oc3cc(CC4c5cc(OC)c(OC)cc5CCN4C)ccc3O)cc1)N(C)CC2 (stereo unspecified) : 80.4

Entry O=C1Nc2ccccc2C1(c1c[nH]c2ccccc12)c1c[nH]c2ccccc12 ; TGI = 8.21

Quick note, TGI for CC(=O)NC1=C(C)C(=O)c2c(nc3n2CCC3OC(=O)c2ccccc2)C1=O (stereo unspecified) landed at 5.13

* * *

Tested on: HOP-92 NSCLC
TEST_SUMMARY: NCI tumour cell line growth inhibition, 48 h
*1 amine or outer side, *2 acyl side, *3 side chain or, on linkers, in order; H or OH if unused. Where a SMILES comes first, the peptide text is derived from it. Bridges are numbered along the chain shown (N, C = ends). [ ]: non-standard residue; d: D form. The star is where a group is joined. Phe(3,5-F2) = N[C@@H](Cc1cc(F)cc(F)c1)C(=O)O; Pro(4R-Me) = C[C@H]1CN[C@H](C(=O)O)C1; aThr = C[C@H](O)[C@H](N)C(=O)O; Pip = O=C(O)[C@@H]1CCCCN1; X10 = Fc1cc(C2CC2)ccc1N*; Abu = CC[C@H](N)C(=O)O; CO = O=C([*:1])[*:2]
READOUT_LABEL: TGI

CC(C)(C)c1ccc2c(c1)C(=O)c1ccccc1C2=O; 85 µM
Nc1ccn(C2OC(COP(=O)(O)OCC3OC(n4cc(F)c(=O)[nH]c4=O)CC3O)C(O)C2O)c(=O)n1 (stereo not drawn); > 100 µM
CCN(CC)c1ccc2c(cc1=O)[C@@H](NC(C)=O)CCc1cc(OC)c(OC)c(OC)c1-2; > 100 µM
C=C1C/C(=C/C)C(=O)O[C@@H]2CCN3CC=C(COC(=O)[C@]1(C)O)[C@H]23; > 100 µM
CC[C@@H]1NC(=O)[C@@H]2CCCCN2C(=O)[C@@H]2CCCN2C(=O)[C@@H](NC(=O)[C@H](Cc2cc(F)cc(F)c2)NC(=O)Nc2ccc(C3CC3)cc2F)[C@H](C)OC(=O)[C@@H]2C[C@@H](C)CN2C1=O ({X10-CO}-[Phe(3,5-F2)][aThr]P[Pip][Abu][Pro(4R-Me)]; ester 2-C); 4.06 µM
CC(=NCC(=O)O)c1ccccc1; > 100 µM

So, CCCCn1c(C)c(C(=O)CC)c(C(=O)NCCN2CCN(c3ccccc3Cl)CC2)c1C ? Its TGI was 27.7 µM

Form field TGI, entry O=C1OC(CC(=O)c2ccccc2Cl)C(Cl)=C1Cl (stereo not drawn) : > 100 µM

Documented TGI of COc1cc2oc(-c3ccc4c(c3)OCO4)c(OC)c(=O)c2c(OC)c1OC : 39.8 µM

Please fill in: TGI reported for CCCCCCCCCCCC[C@H](O)[C@H]1CC[C@H]([C@H](O)CCCC[C@H](O)CCCCC[C@@H](O)CC2=C[C@H](C)OC2=O)O1 = 52.9 µM
